Each entry below carries its reported residual activity.
target: RPS6KB2 (human) (UniProt Q9UBS0); test: radiometric filter-binding kinase assay, Kinase HotSpot; settings: compound 0.5 µM; ATP 10 µM
Sequence (Q9UBS0 whole entry, looked up): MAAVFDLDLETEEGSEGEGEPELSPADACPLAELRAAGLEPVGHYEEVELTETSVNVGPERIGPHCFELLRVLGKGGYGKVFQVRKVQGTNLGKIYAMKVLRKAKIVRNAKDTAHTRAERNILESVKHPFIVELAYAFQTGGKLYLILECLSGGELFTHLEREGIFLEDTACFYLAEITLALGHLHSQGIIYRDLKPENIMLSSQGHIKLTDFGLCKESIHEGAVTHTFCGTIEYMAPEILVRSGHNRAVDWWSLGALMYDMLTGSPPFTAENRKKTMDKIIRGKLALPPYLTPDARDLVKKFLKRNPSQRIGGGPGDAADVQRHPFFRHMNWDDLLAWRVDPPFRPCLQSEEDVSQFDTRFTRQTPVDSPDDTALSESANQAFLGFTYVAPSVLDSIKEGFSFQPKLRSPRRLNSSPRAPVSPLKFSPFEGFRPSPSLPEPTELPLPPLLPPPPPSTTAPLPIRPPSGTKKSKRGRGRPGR
Give the value, in units of %, as a plain number.

> print(dat)
                               smiles.string  recorded.result
 1  COc1cc2ncnc(Nc3ccc(Oc4ccccc4)cc3)c2cc1OC             97.4
 2  Cc1cncc2cccc(S(=O)(=O)N3CCCN(C(=O)CN)C[C@H]3C)c12             99.3
 3   N#C/C(=C\c1ccc(O)c(O)c1)C(=O)NCc1ccccc1             94.7
 4        CC(C)(C)c1cc(C=C(C#N)C#N)cc(Br)c1O              102
 5  Cc1cccc(-c2nc(C(C)(C)C)[nH]c2-c2ccc3c(c2)OCO3)n1              102
 6  COc1cc(Nc2c(C#N)cnc3cc(OCCCN4CCN(C)CC4)c(OC)cc23)c(Cl)cc1Cl              107
 7  O=C(c1cc2cc(O)ccc2[nH]1)c1cc2cc(O)ccc2[nH]1              102
 8  COc1cc2ncnc(Nc3ccc(OCc4ccccc4)cc3)c2cc1OC              108
 9  COc1ccc(C(=O)Nc2sc3c(c2C(N)=O)CCCC3)cc1OC              101
10  CS(=O)(=O)CCNCc1ccc(-c2ccc3ncnc(Nc4ccc(OCc5cccc(F)c5)c(Cl)c4)c3c2)o1              100

What does the data say about its residual activity? Entry: "Fc1ccc(-c2nc3n(c2-c2ccncc2)CCS3)cc1"
85.6

What does the data say about its residual activity? Entry: "CN(C)CCCn1cc(C2=C(c3c[nH]c4ccccc34)C(=O)NC2=O)c2ccccc21"
59

What does the data say about its residual activity? Entry: "c1ccc2c(-c3ccncc3)c[nH]c2c1"
97.8

What does the data say about its residual activity? Entry: "COc1ccc2c(c1)c(C1=C(c3c[nH]c4ccccc34)C(=O)NC1=O)cn2CCCN(C)C"
65.4

What does the data say about its residual activity? Entry: "NC(=O)c1cccc(-c2cc(Nc3ccc(OC(F)(F)F)cc3)ncn2)c1"
102
